Sourced from ChEMBL document CHEMBL1121945

- Organism: Rattus norvegicus
- ASSAY SUMMARY: Inhibition of histamine release from sensitized rat mast cells in vitro
- Type: functional
- PROTOCOL CONDITIONS: Rattus norvegicus, Mast cell; read-out: EC50
MEASURED METRIC: EC50
Kindly format the answer as number then unit.

Solved cases (3 shown):
CC1CCn2c(ncc(C(=O)O)c2=O)/C1=N/Nc1ccccc1 (stereo unspecified); 5.4 µM
CCOc1cccc(N/N=C2\CCC(C)n3c2ncc(C(=O)O)c3=O)c1 (stereo unspecified); 4.7 µM
CCOC(=O)c1cnc2n(c1=O)C(C)CC/C2=N\Nc1ccccc1C(=O)O (stereo unspecified); 100 µM

Please state EC50 for every molecule in the list that follows.
1. O=C(O)c1cnc2n(c1=O)CCC/C2=N\Nc1ccccc1
2. CC1CC/C(=N\Nc2ccc(C3CC3)cc2)c2ncc(C(=O)O)c(=O)n21 (stereo unspecified)
3. CC1CC/C(=N\Nc2ccc(C(F)(F)F)cc2)c2ncc(C(=O)O)c(=O)n21 (stereo unspecified)
4. CC1CC/C(=N\Nc2cccc(Br)c2)c2ncc(C(=O)O)c(=O)n21 (stereo unspecified)
5. CC(C)c1ccc(N/N=C2\CCC(C)n3c2ncc(C(=O)O)c3=O)cc1 (stereo unspecified)
6. CC1CCC(=NNc2ccccc2)c2ncc(C(=O)O)c(=O)n21 (stereo unspecified)
7. CC1CC/C(=N\Nc2ccc(CC(=O)O)cc2)c2ncc(C(=O)O)c(=O)n21 (stereo unspecified)
8. CCOc1ccc(N/N=C2\CCC(C)n3c2ncc(C(=O)O)c3=O)cc1 (stereo unspecified)

Result:
2.9 µM
1 µM
0.28 µM
6.7 µM
1.2 µM
2.2 µM
3.4 µM
17.6 µM

====

- Tested on: Rattus norvegicus
- ASSAY SUMMARY: Inhibition of rat passive cutaneous anaphylaxis (PCA) reaction after intravenous administration
- Type: functional
- PROTOCOL CONDITIONS: Rattus norvegicus, iv; read-out: ID50 (the source's name)
MEASURED METRIC: ED50 (µmol/kg)
Numbers only, in µmol/kg.

Solved cases (3 shown):
CCCCc1ccc(N/N=C2\CCC(C)n3c2ncc(C(=O)O)c3=O)cc1 (configuration not stated); 7.8
CCOc1ccc(N/N=C2\CC[C@@H](C)n3c2ncc(C(=O)O)c3=O)cc1; 0.2
CCOC(=O)c1cnc2n(c1=O)C(C)CC/C2=N\Nc1cccc(C(=O)O)c1 (configuration not stated); 100

Please state ED50 for every compound in the list that follows.
1. CC1CC/C(=N\Nc2ccc(C(F)(F)F)cc2)c2ncc(C(=O)O)c(=O)n21 (configuration not stated)
2. CCOc1ccc(N/N=C2\CC[C@H](C)n3c2ncc(C(=O)O)c3=O)cc1
3. CC1CC/C(=N\Nc2ccc(F)cc2)c2ncc(C(=O)O)c(=O)n21 (configuration not stated)
4. COc1ccc(N/N=C2\CCC(C)n3c2ncc(C(=O)O)c3=O)cc1 (configuration not stated)
5. CC1CCC(=NNc2ccccc2)c2ncc(C(=O)O)c(=O)n21 (configuration not stated)

Result:
[38.6, 100, 12.2, 0.8, 0.6]

Please state ED50 for every compound in the list that follows.
1. CCOC(=O)c1cnc2n(c1=O)C(C)CC/C2=N\Nc1ccccc1C(=O)O (configuration not stated)
2. CC1CC/C(=N\Nc2ccc(CC(=O)O)cc2)c2ncc(C(=O)O)c(=O)n21 (configuration not stated)
3. CC1CC/C(=N\Nc2ccc(C3CC3)cc2)c2ncc(C(=O)O)c(=O)n21 (configuration not stated)
4. CCOC(=O)c1cnc2n(c1=O)C(C)CC/C2=N\Nc1ccc(C(=O)O)cc1 (configuration not stated)
5. CC1CC/C(=N\Nc2ccc(Br)cc2)c2ncc(C(=O)O)c(=O)n21 (configuration not stated)
6. CC1CC/C(=N\Nc2cccc(C(=O)O)c2)c2ncc(C(=O)O)c(=O)n21 (configuration not stated)
7. CC(C)c1ccc(N/N=C2\CCC(C)n3c2ncc(C(=O)O)c3=O)cc1 (configuration not stated)

Result:
1. 10
2. 60.9
3. 41.1
4. 100
5. 0.8
6. 26.6
7. 2.4

====

Please go through the items and note down their ED50.
- Test system: Rattus norvegicus
- ASSAY SUMMARY: Inhibition of rat passive cutaneous anaphylaxis (PCA) reaction after intravenous administration
- Type: functional
- PROTOCOL CONDITIONS: Rattus norvegicus, iv; read-out: ID50 (the source's name)
Numbers only, in µmol/kg.

Solved cases (3 shown):
CCOc1cccc(N/N=C2\CCC(C)n3c2ncc(C(=O)O)c3=O)c1 (stereo unspecified); 0.2
CC1CC/C(=N\Nc2ccccc2CCO)c2ncc(C(=O)O)c(=O)n21 (stereo unspecified); 10.8
CC1C/C(=N\Nc2ccccc2)c2ncc(C(=O)O)c(=O)n2C1 (stereo unspecified); 5.7

Please state ED50 for every compound in the list that follows.
1. CNC(=O)c1ccc(N/N=C2\CCC(C)n3c2ncc(C(=O)O)c3=O)cc1 (stereo unspecified)
2. CC1CC/C(=N\Nc2ccc(C(=O)O)cc2)c2ncc(C(=O)O)c(=O)n21 (stereo unspecified)
3. CC1CCCc2ncc(C(=O)O)c(=O)n21 (stereo unspecified)

Result:
1. 9.6
2. 7.6
3. 240

Please state ED50 for every compound in the list that follows.
1. CC1CCn2c(ncc(C(=O)O)c2=O)/C1=N/Nc1ccccc1 (stereo unspecified)
2. O=C(O)c1cnc2n(c1=O)CCC/C2=N\Nc1ccccc1
3. O=C(O)c1cc(=O)c2c(OCC(O)COc3cccc4oc(C(=O)O)cc(=O)c34)cccc2o1 [CROMOLYN SODIUM]
4. CC1CC/C(=N\Nc2cccc(Br)c2)c2ncc(C(=O)O)c(=O)n21 (stereo unspecified)
5. C[C@@H]1CC/C(=N\Nc2ccc(O)cc2)c2ncc(C(=O)O)c(=O)n21
6. CCOc1ccc(N/N=C2\CCC(C)n3c2ncc(C(=O)O)c3=O)cc1 (stereo unspecified)

Result:
32
31.6
1
0.4
0.14
1.6

====

- Species: Rattus norvegicus
- ASSAY SUMMARY: Inhibition of histamine release from sensitized rat mast cells in vitro
- Assay type: functional
- PROTOCOL CONDITIONS: mast cells
MEASURED METRIC: EC50 (uM l-1)
One number for each entry, in uM l-1.

CC1CC/C(=N\Nc2ccccc2O)c2ncc(C(=O)O)c(=O)n21 (stereo unspecified); 208

Please state EC50 for every molecule in the list that follows.
1. CC1CC/C(=N\Nc2cccc(C(=O)O)c2)c2nccc(=O)n21 (stereo unspecified)
2. CC1CCC(=NNc2ccccc2C(=O)O)c2ncc(C(=O)O)c(=O)n21 (single isomer, unassigned; (+))
3. COc1ccc(N/N=C2\CCC(C)n3c2ncc(C(=O)O)c3=O)cc1 (stereo unspecified)
4. CC1CC/C(=N\Nc2ccccc2)c2ncc(CC(=O)O)c(=O)n21 (stereo unspecified)
5. CC1CC/C(=N\Nc2ccccc2CCO)c2ncc(C(=O)O)c(=O)n21 (stereo unspecified)

Result:
1: 655; 2: 1100; 3: 128; 4: 430; 5: 330

====

- Organism: Rattus norvegicus
- ASSAY SUMMARY: Inhibition of histamine release from sensitized rat mast cells in vitro
- Format: functional
- PROTOCOL CONDITIONS: Rattus norvegicus, Mast cell; read-out: EC50
pEC50: −log10 of the molar value.
Use 5 as the dividing line for pEC50, with the line itself on the yes (1) side and lower values as no (0).

Before answering, review these 4 worked examples.
CCCCc1ccc(N/N=C2\CCC(C)n3c2ncc(C(=O)O)c3=O)cc1 (stereo not given); yes (1)
C[C@@H]1CC/C(=N\Nc2ccc(O)cc2)c2ncc(C(=O)O)c(=O)n21; no (0)
CCOC(=O)c1cnc2n(c1=O)C(C)CC/C2=N\Nc1ccc(C(=O)O)cc1 (stereo not given); no (0)
CC1CC/C(=N\Nc2ccc(-c3ccccc3)cc2)c2ncc(C(=O)O)c(=O)n21 (stereo not given); yes (1)

Q: Kindly determine if pEC50 recorded for CC1CC/C(=N\Nc2ccccc2C(=O)O)c2nccc(=O)n21 (stereo not given) is above or exactly 5.
Result: no (0)

Q: Kindly determine if pEC50 recorded for Cc1cccc(N/N=C2\CCC(C)n3c2ncc(C(=O)O)c3=O)c1 (stereo not given) is above or exactly 5.
Result: no (0)

Q: Kindly determine if pEC50 recorded for CNC(=O)c1ccc(N/N=C2\CCC(C)n3c2ncc(C(=O)O)c3=O)cc1 (stereo not given) is above or exactly 5.
Result: no (0)

====

- Tested on: Rattus norvegicus
- ASSAY SUMMARY: Inhibition of rat passive cutaneous anaphylaxis (PCA) reaction after intravenous administration
- Assay type: functional
- PROTOCOL CONDITIONS: Rattus norvegicus, iv; read-out: ID50 (the source's name)
Please go through the items and note down their log10 of ED50.
Scale: log10; quantity: ED50; unit before log: µmol/kg

CC1CC/C(=N\Nc2ccc(Cl)cc2)c2ncc(C(=O)O)c(=O)n21 (configuration not stated); -0.30
Cc1cccc(N/N=C2\CCC(C)n3c2ncc(C(=O)O)c3=O)c1 (configuration not stated); -0.40
CC1CC/C(=N\Nc2ccc(-c3ccccc3)cc2)c2ncc(C(=O)O)c(=O)n21 (configuration not stated); 0.04
CC1CC/C(=N\Nc2cccc(Cl)c2)c2ncc(C(=O)O)c(=O)n21 (configuration not stated); -0.22
CC1CC/C(=N\Nc2ccccc2F)c2ncc(C(=O)O)c(=O)n21 (configuration not stated); 0.70

// moving on: another record for log10 of ED50
The measured log10 of ED50 associated with Cc1ccc(N/N=C2\CCC(C)n3c2ncc(C(=O)O)c3=O)cc1 (configuration not stated) reads 0.11
